All figures here come from patent US11186583B2.

System: MINO (mantle cell lymphoma)
Recorded log10 GI50 by entry
# log10 transformed; quantity=GI50; unit=nM

Record excerpt, results attached:
compound	target entity	log10 GI50
CC(C)c1n[nH]c2c(NCc3ccc(-c4ccccn4)cc3)nc(SCCC(N)=O)nc12	MINO (mantle cell lymphoma)	1.91
CC(C)c1n[nH]c2c(NCc3ccc(-c4ccccn4)cc3)nc(SCC(C)(C)O)nc12	MINO (mantle cell lymphoma)	2.68
CC(C)c1n[nH]c2c(NCc3ccc(-c4ccccn4)cc3)nc(SCCCO)nc12	MINO (mantle cell lymphoma)	1.95
CNCCSc1nc(NCc2ccc(-c3ccccn3)cc2)c2[nH]nc(C(C)C)c2n1	MINO (mantle cell lymphoma)	1.60
CSCCSc1nc(NCc2ccc(-c3ccccn3)cc2)c2[nH]nc(C(C)C)c2n1	MINO (mantle cell lymphoma)	2.89
CC(C)c1n[nH]c2c(NCc3ccc(-c4ccccn4)cc3)nc(SCCO)nc12	MINO (mantle cell lymphoma)	1.60
CC(C)c1n[nH]c2c(NCc3ccc(-c4ccccn4)cc3)nc(SCCCN(C)C)nc12	MINO (mantle cell lymphoma)	1.88
CC(C)c1n[nH]c2c(NCc3ccc(-c4ccccn4)cc3)nc(SCC(O)CN3CCNCC3)nc12 (stereo not shown)	MINO (mantle cell lymphoma)	2.88
CC(C)c1n[nH]c2c(NCc3ccc(-c4ccccn4)cc3)nc(SCCN(C)C)nc12	MINO (mantle cell lymphoma)	1.97
CC(C)c1n[nH]c2c(NCc3ccc(-c4ccccn4)cc3)nc(SCCNC(=N)N)nc12	MINO (mantle cell lymphoma)	2.59

Task: Identify the measured log10 GI50 of CCC(O)CSc1nc(NCc2ccc(-c3ccccn3)cc2)c2[nH]nc(C(C)C)c2n1 (stereo not shown) for MINO (mantle cell lymphoma).
Output: 2.63

Task: Quick check: log10 GI50 on MINO (mantle cell lymphoma), item C=CCSc1nc(NCc2ccc(-c3ccccn3)cc2)c2[nH]nc(C(C)C)c2n1 ?
Output: 2.97

Task: Recall the recorded log10 GI50 for COCSc1nc(NCc2ccc(-c3ccccn3)cc2)c2[nH]nc(C(C)C)c2n1 with MINO (mantle cell lymphoma) and state it.
Output: 2.39

Task: Please tell me: log10 GI50 of CC(C)c1n[nH]c2c(NCc3ccc(-c4ccccn4)cc3)nc(SCC3CNC(=O)O3)nc12 (stereo not shown) , system MINO (mantle cell lymphoma)?
Output: 1.84

Task: For the record CC(C)c1n[nH]c2c(NCc3ccc(-c4ccccn4)cc3)nc(SC3CCCC3O)nc12 (stereo not shown) , what value of log10 GI50 is listed for MINO (mantle cell lymphoma)?
Output: 2.65

Task: What is its log10 GI50 for MINO (mantle cell lymphoma)? Entry: CC(C)c1n[nH]c2c(NCc3ccc(-c4ccccn4)cc3)nc(SCCNC(N)=O)nc12
Output: 2.13

* * *

HT (diffuse large B-cell lymphoma, subtype—germinal center B-cell): recorded GI50 for assorted compounds
Give the value in nM but do not write nM after it.

Record excerpt, results attached:
compound	measured number
CC(C)c1n[nH]c2c(NCc3ccc(-c4ccccn4)cc3)nc(SCC(O)CO)nc12 (stereo not shown)	21
CC(C)c1n[nH]c2c(NCc3ccc(-c4ccccn4)cc3)nc(SCC(C)(C)O)nc12	507
CC(C)c1n[nH]c2c(NCc3ccc(-c4ccccn4)cc3)nc(SCC(O)CN3CCOCC3)nc12 (stereo not shown)	200

Task: I am curious: what GI50 value has been reported for CC(C)c1n[nH]c2c(NCc3ccc(-c4ccccn4)cc3)nc(SCCN(C)C)nc12 ?
Output: 54
